species on record: Rattus norvegicus; test: Inhibitory concentration against [3H]- 5-HT uptake in crude rat synaptosomes; type: functional; details: Brain
Property label: pIC50
FYI, pIC50 means -log10 of a concentration in mol per litre.

Known results for molecules:
>  <Molecule>
CC(N)Cc1ccc2c(c1)CCC2 (stereo not given)

>  <pIC50>
7.09

$$$$
>  <Molecule>
CC(N)Cc1ccc2c(c1)CCO2 (stereo not given)

>  <pIC50>
6.89

$$$$
>  <Molecule>
CC(N)Cc1ccc2c(c1)OCO2 (stereo not given)

>  <pIC50>
6.43

$$$$

CC(N)Cc1ccc2c(c1)OCC2 (stereo not given) has a reported pIC50 of 6.49

CC(N)Cc1ccc2c(c1)CCCC2 (stereo not given) has a reported pIC50 of 6.92
